Molecular target: Genome polyprotein (dengue virus type 2, UniProt P29990)
Sequence (P29990 1346-1475 limits assumed): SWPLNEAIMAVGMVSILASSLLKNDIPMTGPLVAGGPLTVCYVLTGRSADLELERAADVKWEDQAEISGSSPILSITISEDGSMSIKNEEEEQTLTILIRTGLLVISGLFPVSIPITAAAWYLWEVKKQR
Sequence (P29990 1476-2093 limits assumed): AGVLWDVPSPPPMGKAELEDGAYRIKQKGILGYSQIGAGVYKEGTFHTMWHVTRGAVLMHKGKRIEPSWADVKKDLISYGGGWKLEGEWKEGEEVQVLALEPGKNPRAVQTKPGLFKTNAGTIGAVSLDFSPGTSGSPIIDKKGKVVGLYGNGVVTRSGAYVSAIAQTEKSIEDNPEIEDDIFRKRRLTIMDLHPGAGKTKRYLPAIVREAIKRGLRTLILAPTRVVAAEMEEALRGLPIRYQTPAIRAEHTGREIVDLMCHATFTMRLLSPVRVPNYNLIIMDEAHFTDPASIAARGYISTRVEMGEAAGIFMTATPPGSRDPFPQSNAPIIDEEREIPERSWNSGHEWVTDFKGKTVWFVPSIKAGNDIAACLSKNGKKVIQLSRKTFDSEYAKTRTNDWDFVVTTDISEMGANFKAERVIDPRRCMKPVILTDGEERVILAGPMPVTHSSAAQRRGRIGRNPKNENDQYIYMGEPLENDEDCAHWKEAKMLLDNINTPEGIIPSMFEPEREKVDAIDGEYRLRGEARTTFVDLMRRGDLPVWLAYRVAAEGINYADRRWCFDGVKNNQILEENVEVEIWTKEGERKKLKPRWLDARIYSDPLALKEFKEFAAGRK
Type: functional, Thailand/16681/1984
pIC50: −log10 of the molar value.
List of pIC50 values.
MEASURE: pIC50

• CCOCC1(c2nc3c(C(=O)Nc4ccc5c(c4)CNC5)cc(F)cc3[nH]2)CC1 = < 4.00
• N[C@H]1Cc2ccc(NC(=O)c3cc(Cl)cc(NC(=O)OCc4ccccc4)c3)cc2C1 = 4.48
• CC(C)(C#N)c1cc(C(=O)Nc2cccc(CN)c2)cc(C(F)(F)F)c1 = < 4.00
• CS(=O)(=O)NC(=O)c1cc(CN)cc(NC(=O)c2cc(Cl)cc(NC(=O)OCc3ccccc3)c2)c1 = < 4.00
• O=C(Nc1ccc2c(c1)S(=O)(=O)NC2)c1cc(Cl)cc2[nH]ncc12 = < 4.00
• N[C@]12CCC[C@](C(=O)NCc3ccc4c(c3)CCNCC4)(CC1)C2 = < 4.00
• CC[C@H](Cc1nnn[nH]1)c1ccc(NC(=O)c2cc(Cl)cc(C#N)c2)cc1 = < 4.00
• O=C([C@H](Nc1ccc2c(c1)CNC2)c1cc(Cl)cc(C2CC2)c1)N1CCOCC1 = < 4.00
• O=C(Nc1cc(-c2cccnc2)ccn1)c1nnc(C2CC2)s1 = < 4.00
• NC1CCN(C(=O)c2cc(Cl)cc(NC(=O)OCc3ccccc3)c2)CC1 = < 4.00
• NC[C@H]1OCCc2sc(C(=O)Nc3cc(-c4cccnc4)ccn3)cc21 = < 4.00
• O=C(O)c1cccc(CCc2cc(Cl)cc3[nH]ncc23)c1 = < 4.00
• C[C@@H]1c2cccnc2CCN1Cc1cccc(CN(C)C)c1 = < 4.00
• O=C(Nc1cc2c(c(-c3c[nH]c(=O)c(F)c3)c1)CNC2)c1cc(F)cc2[nH]ncc12 = 4.16
• NCc1cccc(NC(=O)[C@H](NC(=O)OCc2ccccc2)c2cccc(OCc3ccncc3)c2)c1 = < 4.00
• Cc1n[nH]c2nc(Cl)cc(C(=O)Nc3ccc4c(c3)CNC4)c12 = < 4.00
• O=C(O)CCCc1cccc(NC(=O)c2cc(Cl)cc(NC(=O)OCc3ccccc3)c2)c1 = 4.43
• Brc1nc(Br)n(Cc2cscn2)n1 = < 4.00
• CNCc1cccc(NC(=O)c2cc(Cl)cc(NC(=O)OCc3ccccc3)c2)c1 = 4.09
• COc1ccc(-c2nc3c(C(=O)Nc4ccc5c(c4)CNC5)cc(Cl)cc3[nH]2)cc1 = 4.67
• O=C(Nc1ccc2c(c1)CNC2)c1c(Br)cc(Cl)c2[nH]ncc12 = < 4.00
